assayed-system: M18 aspartyl aminopeptidase (Plasmodium falciparum)
assay: PfM18AAP aspartyl aminopeptidase inhibitors, dose response, biochemical, QFRET fluorogenic substrate, set 2 (AID 624177)
experimental-parameters: recombinant PfM18AAP, H-Glu-NHMec fluorogenic substrate cleavage
Catalogue of pIC50 values
Value format note: pIC50 is -log10 of concentration (mol/L); just state the number.

CN(CCc1ccc(O)c(O)c1)c1c2ccccc2nc2ccccc12 : 4.52
Oc1ccc(CCNc2ccnc3cc(Cl)ccc23)cc1O : 4.83

Q: Answer with the recorded pIC50 for the compound listed here: `Cc1cccc2c(NCCc3ccc(O)c(O)c3)ccnc12`
Result: 4.84

Q: Answer with the recorded pIC50 for the compound listed here: CC(Cc1ccc(O)c(O)c1)Nc1ccnc2ccccc12 (centres undefined)
Result: 4.78
